System: A2780 Human Carcinoma Cells
Experiment: Glucose displacement assay (ATP measurement, CellTiter-Glo)
Type: cell-based
Conditions: ATP measurement in A2780 cells, 0.5 μM rotenone, 10 mM glucose, read-out: IC50 [μM] at 10 mM glucose
Metric: IC50 (µM)
Number in µM, nothing else.

CO[C@H]1O[C@H](CO)[C@@H](O)[C@H](O)[C@H]1OC(=O)c1cc(Cl)c(OCc2ccc(OCC(=O)OC(C)(C)C)cc2)c(Cl)c1C [Example 319]	8.03

Please look at the following compound next.
Short answer on A2780 Human Carcinoma Cells for COC(=O)[C@H](CCCCNC(=O)CCCCCn1c(COc2c(Cl)cc(C(=O)N[C@H]3[C@@H](OC)O[C@H](CO)[C@@H](O)[C@@H]3O)c(C)c2Cl)nc2ccccc21)NC(=O)OC(C)(C)C [Example 322] , IC50: 7.06

* * *

Each record here notes measured IC50.
Test system: A2780 Human Carcinoma Cells
Assay: Glucose displacement assay (ATP measurement, CellTiter-Glo)
Assay type: cell-based
Settings: ATP measurement in A2780 cells, 0.5 μM rotenone, 10 mM glucose, read-out: IC50 [μM] at 10 mM glucose
Number in µM, nothing else.

Please review the entries below; each comes with its answer.
COC(=O)CCc1ccc(COc2cc(OC)c(C(=O)N[C@H]3[C@@H](OC)O[C@H](CO)[C@@H](O)[C@@H]3O)cc2Cl)cc1 [Example 356]	12.1
COc1cc(OCc2cccc(NC(=O)CCC(=O)OC(C)(C)C)c2)c(Cl)cc1C(=O)O[C@H]1[C@@H](OC)O[C@H](CO)[C@@H](O)[C@@H]1O [Example 375]	7.19

Entry under test: COC(=O)[C@H](CCCCNC(=O)CCCCCCC(=O)NCc1cccc(COc2cc(OC)c(C(=O)O[C@H]3[C@@H](OC)O[C@H](CO)[C@@H](O)[C@@H]3O)cc2Cl)c1)NC(=O)OC(C)(C)C [Example 413] . Its IC50 was 30.9

Entry under test: CO[C@H]1O[C@H](CO)[C@@H](O)[C@H](O)[C@H]1OC(=O)c1cc(Cl)c(OCc2noc3ccc(C)cc23)c(Cl)c1C [Example 325] . Its IC50 was 7.19

Entry under test: COc1cc(OCc2cccc(NC(=O)CCCC(=O)OC(C)(C)C)c2)c(Cl)cc1C(=O)O[C@@H]1[C@@H](O)[C@@H](OC)O[C@H](CO)[C@H]1O [Example 364] . Its IC50 was 12.3

Entry under test: COC(=O)[C@H](CCCCNC(=O)CCCCCCC(=O)Nc1cccc(COc2cc(OC)c(C(=O)N[C@H]3[C@@H](OC)O[C@H](CO)[C@@H](O)[C@@H]3O)cc2Cl)c1)NC(=O)OC(C)(C)C [Example 441] . Its IC50 was 11.4

Entry under test: COC(=O)[C@@H](CCCCNC(=O)CCCCCNC(=O)CCCCCCCCC(=O)Nc1cccc(COc2cc(OC)c(C(=O)N[C@H]3[C@@H](OC)O[C@H](CO)[C@@H](O)[C@@H]3O)cc2Cl)c1)NC(=O)OC(C)(C)C [Example 472] . Its IC50 was 15.6

Entry under test: COc1cc(OCc2cccc(NC(=O)OC(C)(C)C)c2)c(Cl)cc1C(=O)N[C@H]1[C@H](OC)O[C@H](CO)[C@@H](O)[C@@H]1O [Example 415] . Its IC50 was 9.21

Entry under test: COc1cc(OCc2cccc(NC(=O)CCCCCCC(=O)O)c2)c(Cl)cc1C(=O)O[C@H]1[C@@H](OC)O[C@H](CO)[C@@H](O)[C@@H]1O [Example 409] . Its IC50 was 14.5
